I'd appreciate it if you could supply growth values for the items below.
# System: ACHN renal
# experiment description: NCI-60 one-dose screen, 48 h (100 = growth as untreated, 0 = no growth, -100 = all killed)
# experimental setup: 10 µM unless noted
About 83,000 compounds went through this panel and 20% of them were active in at least one assay; those are over-represented in the sample as a whole.
One number for each entry, in %.

CCCCn1c(-c2ccc(C(=O)O/N=C(\N)c3ccc(OC)cc3)cc2)nc(-c2ccccc2)c1-c1ccccc1    -97.9
CCOC(=O)c1c2c(n(-c3ccc(C#N)cc3)c1-c1ccccc1)C=CCC2    86.8
Cc1c(C(=O)N[C@@H](Cc2ccccc2)C(=O)C(=O)NCc2ccc(F)cc2)[nH]c2ccccc2c1=O    97.8
Cc1nc2ccccc2c(/C=C/c2ccc(Cl)cc2)c1C(=O)/C=C/c1ccc(C(F)(F)F)cc1    -100
O=c1ccc(N=Nc2ccc([N+](=O)[O-])cc2)ccc1O    16.5
Clc1ccc2c(c1)N(CCCN1CCCC1)c1ccccc1S2    45
O=c1[nH]c2c(ccc3cnccc32)c2c1CCC2    6.67
CCOC(=O)Nc1ccc(-c2nc(-c3cccc(OCCN4CCOCC4)c3)c(-c3ccnc(Br)c3)[nH]2)cc1    43.9
Oc1ccc(C#CCOc2ccccc2)cc1CNCCN(Cc1ccccn1)Cc1ccccn1    9.66
COC(=O)C(Cc1ccccc1)NC(=O)NC(=O)NC(=O)CI (stereo not given)    75.7

Go through the list and state growth for each entry.
1. COc1c(C2CC(=O)Nc3c2c(C)nn3-c2nc3ccccc3[nH]2)cc2c(c1OC)OCO2 (stereo not given)
2. COC1=C(C)C(=O)c2c(c(CCCl)c3n2CCC3OC(C)=O)C1=O (stereo not given)
3. CCOc1c(B(O)O)cccc1-c1nc2ccc3[nH]ncc3c2c2c1CCCC2

Out:
1: 55.8; 2: -3.88; 3: 51.1

Fill in growth for each of the 7 compounds listed.
1. COc1cc(C)c(Cc2cnc(N)nc2N)cc1OC
2. COC1=C(C)C(=O)c2c(c(CCCl)c3n2CCC3O)C1=O (stereo not given)
3. COc1ccc(-n2c(N)c(-c3nc4ccccc4[nH]3)cc(C#N)c2=O)cc1
4. O=S(=O)(NCCCNc1cc(-c2c(-c3cccc(O)c3)nc3sccn23)ccn1)c1cccc2ccccc12
5. COc1ccc(-c2cc(-c3cc(OC)c(OC)c(OC)c3)nc(N3CCOCC3)c2C#N)cc1
6. CCCCC[C@H](O)C/C=C1/C(=O)C=C[C@@H]1C/C=C\CCCC(=O)O
7. NCCCNc1nc2ccccc2c2c(=O)c3cc(OC(F)(F)F)ccc3sc12

Out:
[96.6, -3.06, 75.9, 38.9, 68.3, 83.2, -22.8]
